// data source = patent US20030148956A1

- target-under-test: CRF1R
- test: cell-based or functional assay
Ends that are not written are not given here.
As shown below, each of these binders has a reported CRF1R Emax value.
Give the number; % is assumed, so skip it.

[[record]]
binder = "ZGPPISIDLPWHLLRKMIEIEKQEKEKQQAANNRLLLDTI (C-terminal amide) [SEQ ID NO 209]"
obs_value = 80

[[record]]
binder = "IVLSLDVPIGLLQILLEQEKQRAAREQATTNARILARV-NH2 [SEQ ID NO 115]"
obs_value = 7

[[record]]
binder = "ZGPPISIDLPIKLLRKMIEIEKQEKEKQQAANNRLLLDTI (C-terminal amide) [SEQ ID NO 34]"
obs_value = 11


Note to self: CRF1R Emax recorded for ZGPPISIDLPAQLLRKMIEIEKQEKEKQQAANNRLLLDTI (C-terminal amide) [SEQ ID NO 211] was 37

Form: binder = ZGPPISIDLPTRLLRKMIEIEKQEKEKQQAANNRLLLDTI (C-terminal amide) [SEQ ID NO 60] ; CRF1R Emax = 8

Briefly, CRF1R Emax measured for ZGPPISIDLPFQLLRKMIEIEKQEKEKQQATTNARILARV (C-terminal amide) [SEQ ID NO 148] : 100

Input SQEPPISLDLPLQLLREVLEMTKADQLAQQAHSNRKLLDIA-NH2 [SEQ ID NO 95] . Output CRF1R Emax: 5.55
